Tested on: HCT15 cells
assay.remarks: HCT15 anti-proliferation / cell killing assay (CellTiter-Glo), with or without verapamil
Format: cell-based, human
condition.set: Homo sapiens, HCT-15, HCT15 cells pre-treated with verapamil, 120 h, read-out: HCT-15 with verapamil
readout: IC50

Recorded results for 10 compounds are shown here.
[[record]]
compound = "CCCCCCN(C(=O)[C@@H](NC(=O)[C@@]1(C)CCCN1CCN)[C@@H](C)CC)[C@H](C[C@@H](OC(C)=O)c1nc(C(=O)N[C@@H](Cc2ccc(O)cc2)CC(C)(C)C(=O)O)cs1)C(C)C (mixture of isomers) [PA5]"
readout = "IC50"
measurement = "15.9 nM"

[[record]]
compound = "CCCCCCN(C(=O)[C@@H](NC(=O)[C@H]1CCCCN1)[C@@H](C)CC)[C@H](C[C@@H](OCCCO)c1nc(C(=O)N[C@@H](Cc2ccc(NCC(=O)O)cc2)CC(C)(C)C(=O)O)cs1)C(C)C (mixture of isomers) [PA23]"
readout = "IC50"
measurement = "> 1000 nM"

[[record]]
compound = "CCCCCCN(C(=O)[C@@H](NC(=O)[C@H]1CCCCN1CCO)[C@@H](C)CC)[C@H](C[C@@H](OCC)c1nc(C(=O)N[C@@H](Cc2ccc(NC(=O)CN)cc2)CC(C)(C)C(=O)O)cs1)C(C)C [PA9]"
readout = "IC50"
measurement = "1.08 nM"

[[record]]
compound = "CCCCCCN(C(=O)[C@@H](NC(=O)[C@H]1CCCCN1CC(=O)O)[C@@H](C)CC)[C@H](C[C@@H](OC(C)=O)c1nc(C(=O)N[C@@H](Cc2ccc(N)cc2)CC(C)(C)C(=O)O)cs1)C(C)C [PA10]"
readout = "IC50"
measurement = "2.95 nM"

[[record]]
compound = "CCCCCCN(C(=O)[C@@H](NC(=O)[C@@]1(C)CCCN1)[C@@H](C)CC)[C@H](C[C@@H](OC(C)=O)c1nc(C(=O)N[C@@H](Cc2ccc(O)cc2)CC(C)(C)C(=O)O)cs1)C(C)C [Compound P22, reference compound]"
readout = "IC50"
measurement = "0.078 nM"

[[record]]
compound = "CCCCCCN(C(=O)[C@@H](NC(=O)[C@H]1CCCCN1C)[C@@H](C)CC)[C@H](C[C@@H](OCC)c1nc(C(=O)N[C@@H](Cc2ccc(NCCO)cc2)CC(C)(C)C(=O)O)cs1)C(C)C (racemic) [PA15]"
readout = "IC50"
measurement = "0.393 nM"

[[record]]
compound = "CCCCCCN(C(=O)[C@@H](NC(=O)[C@H]1CCCCN1CCN)[C@@H](C)CC)[C@H](C[C@@H](OCC)c1nc(C(=O)N[C@@H](Cc2ccc(O)cc2)CC(C)(C)C(=O)O)cs1)C(C)C [PA4]"
readout = "IC50"
measurement = "6.19 nM"

[[record]]
compound = "CCCCCCN(C(=O)[C@@H](NC(=O)[C@H]1CCCCN1CCO)[C@@H](C)CC)[C@H](C[C@@H](OC(C)=O)c1nc(C(=O)N[C@@H](Cc2ccc(N)cc2)CC(C)(C)C(=O)O)cs1)C(C)C [PA7]"
readout = "IC50"
measurement = "0.037 nM"

[[record]]
compound = "C#CCCCON(C(=O)[C@@H](NC(=O)[C@@]1(C)CCCN1CCO)[C@@H](C)CC)[C@H](C[C@@H](OC(C)=O)c1nc(C(=O)N[C@@H](Cc2ccc(N)cc2)CC(C)(C)C(=O)O)cs1)C(C)C [PA3]"
readout = "IC50"
measurement = "0.741 nM"

[[record]]
compound = "CCCCCCN(C(=O)[C@@H](NC(=O)[C@H]1CCCCN1C)[C@@H](C)CC)[C@H](C[C@@H](OC(C)=O)c1nc(C(=O)N[C@@H](Cc2ccc(NCCO)cc2)CC(C)(C)C(=O)O)cs1)C(C)C (racemic) [PA14]"
readout = "IC50"
measurement = "0.147 nM"


I have this compound here, CCCCCCN(C(=O)[C@@H](NC(=O)[C@H]1CCCCN1CCO)[C@@H](C)CC)[C@H](C[C@@H](OC(C)=O)c1nc(C(=O)N[C@@H](Cc2ccc(N)c(F)c2)CC(C)(C)C(=O)O)cs1)C(C)C [PA8] , and I need its recorded IC50.
0.029 nM

Ok, now CCCCCCN(C(=O)[C@@H](NC(=O)[C@H]1CCCCN1C)[C@@H](C)CC)[C@H](C[C@@H](OC(C)=O)c1nc(C(=O)N[C@@H](Cc2ccc(NCC(=O)O)cc2)CC(C)(C)C(=O)O)cs1)C(C)C (racemic) [PA16]
0.033 nM

Ok, now CCCCCCN(C(=O)[C@@H](NC(=O)[C@H]1CCCCN1)[C@@H](C)CC)[C@H](C[C@@H](OC(C)=O)c1nc(C(=O)N[C@@H](Cc2ccc(NCC(=O)O)cc2)CC(C)(C)C(=O)O)cs1)C(C)C (mixture of isomers) [PA17]
0.09 nM

Ok, now CCCCCCN(C(=O)[C@@H](NC(=O)[C@H]1CCCCN1C)[C@@H](C)CC)[C@H](C[C@@H](OC(C)=O)c1nc(C(=O)N[C@@H](Cc2ccc(N(CCO)C(=O)CN)cc2)CC(C)(C)C(=O)O)cs1)C(C)C (racemic) [PA19]
1.8 nM

Ok, now CCCCCCN(C(=O)[C@@H](NC(=O)[C@H]1CCCCN1C)[C@@H](C)CC)[C@H](C[C@@H](NC(C)=O)c1nc(C(=O)N[C@@H](Cc2ccc(NC(=O)CN)cc2)CC(C)(C)C(=O)O)cs1)C(C)C [PA21]
1.73 nM

Origin of the recorded values: patent US20230414775A1
